Experiment: drug combination growth inhibition, ovarian cancer – cell-based, oncology-focused library, rucaparib conditional, profiling panel (AID 1508598)
Settings: patient-derived ovarian cancer cells, CellTiter-Glo viability, 144 h; at 0.000305 µM; OCI-P5x cells; with rucaparib 20 µM; 100% = cells with rucaparib alone
Active and inactive are the calls of the source.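 Rule for the calls: active = normalized viability below 100% at a tested concentration; inactive = the rest.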
Output constraint: value belongs to yes (active), no (inactive)

Assay outcome for O=C(O)c1ccc2c(c1)nc(Nc1cccc(Cl)c1)c1ccncc12 : what was it?
no

Returns: the outcome recorded for CO[C@@H](C(=O)N1Cc2[nH]nc(NC(=O)c3ccc(N4CCN(C)CC4)cc3)c2C1)c1ccccc1 in this assay.
yes

Hello, I am checking results. What call was entered for Cc1cnc(-c2cnc(NCCNc3ccc(C#N)cn3)nc2-c2ccc(Cl)cc2Cl)[nH]1 ?
no

Which outcome did this test record for the compound Cn1cc(CNCC2CCN(c3ncc(C(=O)NO)cn3)CC2)c2ccccc21 ?
yes

Tell me the assay call for COc1cc(Nc2nc3ccccc3nc2NS(=O)(=O)c2ccc(NC(=O)c3ccc(C)c(OC)c3)cc2)cc(OC)c1 please.
yes

Would you mind telling me which call this test gave COc1c(C)cnc(Cn2cnc3c(Cl)nc(N)nc32)c1C ?
no

State the result this test recorded for CN(c1ncccc1CNc1nc(Nc2ccc3c(c2)CC(=O)N3)ncc1C(F)(F)F)S(C)(=O)=O .
no

What did the test return for Cn1cc(-c2ccc3nnc(Sc4ccc5ncccc5c4)n3n2)cn1 ?
yes

For O=C(Nc1cccc(Cl)c1)Nc1ncc(CCNc2ncnc3ccsc23)s1 , what call appears in the results of this test?
no

Status in this test for Cc1cccc(-c2nn3c(c2-c2ccnc4ccc(C(N)=O)cc24)CCC3)n1 ?
no

Could you please tell me the result logged for Cn1cc(-c2ccc3c(c2)CCN3C(=O)Cc2cccc(C(F)(F)F)c2)c2c(N)ncnc21 in this assay?
yes

Kindly provide the recorded test outcome for the following compound: Cn1cnc2c(F)c(Nc3ccc(Br)cc3Cl)c(C(=O)NOCCO)cc21
yes

What did this assay record as the result for CC(=O)Nc1cccc(-n2c(=O)n(C3CC3)c(=O)c3c(Nc4ccc(I)cc4F)n(C)c(=O)c(C)c32)c1 ?
no

What did this assay record as the result for Cc1nc2c(-c3cnc(N)nc3)nc(N3CCOCC3)nc2n1C(C)C ?
no

Hi, do you know how Cc1cc(CS(=O)(=O)c2ccccc2)cc(OCc2ccc(CN3CCC[C@@H]3CO)cc2)c1 came out in this test?
yes

Hello, I am checking results. What call was entered for NC1(c2ccc(-c3nc4ccn5c(=O)[nH]nc5c4cc3-c3ccccc3)cc2)CCC1 ?
no

Kindly provide the recorded test outcome for the following compound: CCC[C@H](NC(=O)/C(C#N)=C/c1cccc(Br)n1)c1ccccc1
yes

Could you please tell me the result logged for Cc1nc(N)sc1-c1ccnc(Nc2ccc(N3CCOCC3)cc2)n1 in this assay?
no

Record lookup: outcome of this test for CCCCCCCCc1ccc(CCC(N)(CO)CO)cc1 ?
no

For CC(C)C[C@H](NC(=O)CNC(=O)c1cc(Cl)ccc1Cl)B1OC(=O)CC(CC(=O)O)(C(=O)O)O1 (stereo not given in full) , what call appears in the results of this test?
no
